Field: bone sialoprotein II expression in relation to untreated control (100%). Provide a value for each of the substances that follow.
Tested on: bone sialoprotein II
TEST_METHOD_NOTES: Western blot of bone sialoprotein II expression after exposure to ASOs
Format: cell-based, human
CONDITION_DETAILS: MDA-MB231; single exposure; lipofectamine; 10 μM
Numbers only, in %.

Worked examples, 4 substances total:
{"SUBSTANCE": "5′-ATTCTTCATTGTTTTCTCCT-3 (antisense ATTCTTCATTGTTTTCTCCT; all phosphorothioate, sugars by position and methylation of C not given here) [ASO-BSPII-4]", "SYSTEM_TESTED": "bone sialoprotein II", "UNITS": "%", "ENDPOINT_RESULT": 73}
{"SUBSTANCE": "5′-TCACTGGTGGTGGTAGTAAT-3′ (antisense TCACTGGTGGTGGTAGTAAT; all phosphorothioate, sugars by position and methylation of C not given here) [ASO-BSPII-10]", "SYSTEM_TESTED": "bone sialoprotein II", "UNITS": "%", "ENDPOINT_RESULT": 33}
{"SUBSTANCE": "5′-TGATTGCTTCCTCTGGCAGT-3′ (antisense TGATTGCTTCCTCTGGCAGT; all phosphorothioate, sugars by position and methylation of C not given here) [ASO-BSPII-1]", "SYSTEM_TESTED": "bone sialoprotein II", "UNITS": "%", "ENDPOINT_RESULT": 45}
{"SUBSTANCE": "5′-CTTCATTGTTTTCTCCTTCA-3′ (antisense CTTCATTGTTTTCTCCTTCA; all phosphorothioate, sugars by position and methylation of C not given here) [ASO-BSPII-3]", "SYSTEM_TESTED": "bone sialoprotein II", "UNITS": "%", "ENDPOINT_RESULT": 97}

Attention now turns to another entry.
Input line: What measured bone sialoprotein II expression in relation to untreated control (100%) goes with 5′-GCGAGGGAGTTCTTCTTCTA-3′ (GCGAGGGAGTTCTTCTTCTA; phosphorothioate backbone, further chemistry not given here) [NSO, reference compound] ?
Output line: 100

----------
System: osteonectin
TEST_METHOD_NOTES: Western blot of osteonectin expression after exposure to ASOs
Assay type: cell-based, human
CONDITION_DETAILS: MDA-MB231; single exposure; lipofectamine; 10 μM
RECORDED_ENDPOINT: osteonectin expression in relation to untreated control (100%)
Numbers only, in %.

{"SUBSTANCE": "5′-AGGTCACAGGTCTCGAAAAA-3′ (antisense AGGTCACAGGTCTCGAAAAA; all phosphorothioate, sugars by position and methylation of C not given here) [ASO-ON-6]", "ENDPOINT_RESULT": 52}
{"SUBSTANCE": "5′-GAATCCGGTACTGTGGAAGG-3′ (antisense GAATCCGGTACTGTGGAAGG; all phosphorothioate, sugars by position and methylation of C not given here) [ASO-ON-8]", "ENDPOINT_RESULT": 54}
{"SUBSTANCE": "5′-TTGAAGTTTCTCTTGATTAA-3′ (antisense TTGAAGTTTCTCTTGATTAA; all phosphorothioate, sugars by position and methylation of C not given here) [ASO-ON-10]", "ENDPOINT_RESULT": 46}
{"SUBSTANCE": "5′- TGTACTTGTCATTGTCCAGG-3′ (antisense TGTACTTGTCATTGTCCAGG; all phosphorothioate, sugars by position and methylation of C not given here) [ASO-ON-7]", "ENDPOINT_RESULT": 50}

Hey, can you go through the list below and give me osteonectin expression in relation to untreated control (100%) for every item?
1. 5′-CCATCATCAAATTCTCCTAC-3′ (antisense CCATCATCAAATTCTCCTAC; all phosphorothioate, sugars by position and methylation of C not given here) [ASO-ON-2]
2. 5′-CAAACATTTTAAACATTGGG-3′ (antisense CAAACATTTTAAACATTGGG; all phosphorothioate, sugars by position and methylation of C not given here) [ASO-ON-9]

Output line:
1: 61; 2: 37

----------
System: osteopontin
TEST_METHOD_NOTES: Western blot of osteopontin expression after exposure to ASOs
Type: cell-based, human
CONDITION_DETAILS: MDA-MB231; twofold exposure; lipofectamine; 10 μM
RECORDED_ENDPOINT: osteopontin expression in relation to untreated control (100%)
Give bare numbers, in %.

Worked examples, 3 substances total:
{"SUBSTANCE": "5′-ACACTAACTTAAAAAACAAA-3′ (antisense ACACTAACTTAAAAAACAAA; all phosphorothioate, sugars by position and methylation of C not given here) [ASO-OPN-5]", "UNITS": "%", "ENDPOINT_RESULT": 80}
{"SUBSTANCE": "5′-ATGTGGCCACAGCATCTGGG-3′ (antisense ATGTGGCCACAGCATCTGGG; all phosphorothioate, sugars by position and methylation of C not given here) [ASO-OPN-8]", "UNITS": "%", "ENDPOINT_RESULT": 97}
{"SUBSTANCE": "5′-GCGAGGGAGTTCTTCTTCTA-3′ (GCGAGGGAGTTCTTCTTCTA; phosphorothioate backbone, further chemistry not given here) [NSO, reference compound]", "UNITS": "%", "ENDPOINT_RESULT": 99}

Input line: Provide the documented osteopontin expression in relation to untreated control (100%) with osteopontin as the system for 5′-GTTCAGGTCCTGGGCAACGG-3 (antisense GTTCAGGTCCTGGGCAACGG; all phosphorothioate, sugars by position and methylation of C not given here) [ASO-OPN-3]
Output line: 38

----------
Test system: osteonectin
TEST_METHOD_NOTES: Western blot of osteonectin expression after exposure to ASOs
Format: cell-based, human
CONDITION_DETAILS: MDA-MB231^F (growing without FBS); single exposure; lipofectamine; 10 μM
Field: osteonectin expression in relation to untreated control (100%). Provide a value for each of the substances that follow.
Answers are plain numbers, in %.

{"SUBSTANCE": "5′-TTGAAGTTTCTCTTGATTAA-3′ (antisense TTGAAGTTTCTCTTGATTAA; all phosphorothioate, sugars by position and methylation of C not given here) [ASO-ON-10]", "ENDPOINT_RESULT": 35}

Attention now turns to another entry.
Input line: What measured osteonectin expression in relation to untreated control (100%) goes with 5′-AGATCCAGGCCCTCATGGTG -3′ (antisense AGATCCAGGCCCTCATGGTG; all phosphorothioate, sugars by position and methylation of C not given here) [ASO-ON-1] ?
Output line: 44

----------
Field: bone sialoprotein II expression in relation to untreated control (100%). Provide a value for each of the substances that follow.
System: bone sialoprotein II
TEST_METHOD_NOTES: Western blot of bone sialoprotein II expression after exposure to ASOs
Format: cell-based, human
CONDITION_DETAILS: MDA-MB231; single exposure; electroporation; 10 μM
Give bare numbers, in %.

Worked examples, 5 substances total:
{"SUBSTANCE": "5′-ACTGGTGGTGGTAGTAATTC-3′ (antisense ACTGGTGGTGGTAGTAATTC; all phosphorothioate, sugars by position and methylation of C not given here) [ASO-BSPII-9]", "UNITS": "%", "ENDPOINT_RESULT": 46}
{"SUBSTANCE": "5′-TCACTGGTGGTGGTAGTAAT-3′ (antisense TCACTGGTGGTGGTAGTAAT; all phosphorothioate, sugars by position and methylation of C not given here) [ASO-BSPII-10]", "UNITS": "%", "ENDPOINT_RESULT": 40}
{"SUBSTANCE": "5′-TGATTGCTTCCTCTGGCAGT-3′ (antisense TGATTGCTTCCTCTGGCAGT; all phosphorothioate, sugars by position and methylation of C not given here) [ASO-BSPII-1]", "UNITS": "%", "ENDPOINT_RESULT": 78}
{"SUBSTANCE": "5′-ATTCTTCATTGTTTTCTCCT-3 (antisense ATTCTTCATTGTTTTCTCCT; all phosphorothioate, sugars by position and methylation of C not given here) [ASO-BSPII-4]", "UNITS": "%", "ENDPOINT_RESULT": 55}
{"SUBSTANCE": "5′-CTTCATCACTTTCCTTCTCT-3′ (antisense CTTCATCACTTTCCTTCTCT; all phosphorothioate, sugars by position and methylation of C not given here) [ASO-BSPII-5]", "UNITS": "%", "ENDPOINT_RESULT": 63}

Hey, can you go through the list below and give me bone sialoprotein II expression in relation to untreated control (100%) for every item?
1. 5′-ATTTTGGTGATTGCTTCCTC-3′ (antisense ATTTTGGTGATTGCTTCCTC; all phosphorothioate, sugars by position and methylation of C not given here) [ASO-BSPII-2]
2. 5′-CTTCATTGTTTTCTCCTTCA-3′ (antisense CTTCATTGTTTTCTCCTTCA; all phosphorothioate, sugars by position and methylation of C not given here) [ASO-BSPII-3]
3. 5′-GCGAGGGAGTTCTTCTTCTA-3′ (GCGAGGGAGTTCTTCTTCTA; phosphorothioate backbone, further chemistry not given here) [NSO, reference compound]

Output line:
1: 94; 2: 44; 3: 99

Input line: What measured bone sialoprotein II expression in relation to untreated control (100%) goes with 5′-CTGCCTTCCGGTCTCTGTGG-3′ (antisense CTGCCTTCCGGTCTCTGTGG; all phosphorothioate, sugars by position and methylation of C not given here) [ASO-BSPII-8] ?
Output line: 34

// provenance: patent US20090017103A1
